Target: UniProt:P0DTD1
Assay: biochemical
Assay type: biochemical
Design: unit not given here
Details: sheet LOPAC_screen_w_protease; primary screen with protease, compound at 5 µM; mean of two replicates
readoutLabel: mean
Just the number, please, no unit attached.

Completed entries (count: 5):
molecule	mean
CNc1ncnc2c1ncn2[C@@H]1O[C@H](CO)[C@@H](O)[C@H]1O	2.9788
CCCCCCCCCCCCCCCCCC(=O)NCC(COP(=O)([O-])OCC[N+](C)(C)C)OCC (racemic)	3.086
N.N.O=C([O-])C1(C(=O)[O-])CCC1.[Pt+2]	2.889
C[C@@H](NC(=O)/C(C#N)=C/c1ccc(O)c(O)c1)c1ccccc1	2.942
NCCNC(=O)Cc1ccc(NC(=O)Cc2ccc(Nc3ncnc4c3ncn4[C@@H]3O[C@H](CO)[C@@H](O)[C@H]3O)cc2)cc1	2.686

Data request: Return reported mean. Input molecule: C[C@@]1(C2CCCC2)Cc2cc(OCC(=O)O)c(Cl)c(Cl)c2C1=O [R(+)-IAA-94]
Data returned: 3.0784

Data request: Please indicate mean recorded for CNC(=O)[C@H]1O[C@@H](n2cnc3c(NCc4ccc(N)cc4)ncnc32)[C@H](O)[C@@H]1O
Data returned: 2.5809

Data request: Fill in mean for record Nc1ncnc2c1ncn2C1CCCC1
Data returned: 2.587
